- System: ICR strain mice
- assay-notes: Pulmonary toxicity (pulmonary fibrosis) in mice, intraperitoneal injection
- Format: in vivo
- experimental-context: 5 mg/kg i.p. once a day for 10 days; autopsy after 5 weeks; affected/total mice
readout-label: Incidence: number of mice suffering from pulmonary fibrosis

# compound, reported-result
rows = [
    ("Cc1c(N)nc(C(CC(N)=O)NCC(N)C(N)=O)nc1C(=O)NC(C(=O)NC(C)C(O)C(C)C(=O)NC(C(=O)NCCc1nc(-c2nc(C(=O)NCCC[N+](C)(CCCN(Cc3ccccc3)Cc3ccccc3)Cc3ccccc3)cs2)cs1)C(C)O)C(OC1OC(CO)C(O)C(O)C1OC1OC(CO)C(O)C(OC(N)=O)C1O)c1cnc[nH]1 (centres unmarked) [compound 39]", "0/9"),
]

Item under review: Cc1c(N)nc(C(CC(N)=O)NCC(N)C(N)=O)nc1C(=O)NC(C(=O)NC(C)C(O)C(C)C(=O)NC(C(=O)NCCc1nc(-c2nc(C(=O)NCCCN(C)CCCNCc3ccc(Cl)cc3Cl)cs2)cs1)C(C)O)C(OC1OC(CO)C(O)C(O)C1OC1OC(CO)C(O)C(OC(N)=O)C1O)c1cnc[nH]1 (centres unmarked) [compound 8] . Reported Incidence: number of mice suffering from pulmonary fibrosis?
1/9

###

# key: entry, value: Grade of pulmonary fibrosis, Ratio
- System: ICR strain mice
- assay-notes: Pulmonary toxicity (pulmonary fibrosis) in mice, intraperitoneal injection
- Type: in vivo
- experimental-context: 5 mg/kg i.p. once a day for 10 days; reference of the ratio not stated
Reply with the value as a number alone.

The cases that follow already have their Grade of pulmonary fibrosis, Ratio on record.
# compound, system-under-test, Grade of pulmonary fibrosis, Ratio
records = [
    ("Cc1c(N)nc(C(CC(N)=O)NCC(N)C(N)=O)nc1C(=O)NC(C(=O)NC(C)C(O)C(C)C(=O)NC(C(=O)NCCc1nc(-c2nc(C(=O)NCCCN(C)CCCN(Cc3ccc(OCC4CCCCCCC4)cc3)Cc3ccc(OCC4CCCCCCC4)cc3)cs2)cs1)C(C)O)C(OC1OC(CO)C(O)C(O)C1OC1OC(CO)C(O)C(OC(N)=O)C1O)c1cnc[nH]1 (stereo not drawn)", "ICR strain mice", 0.00),
    ("Cc1c(N)nc(C(CC(N)=O)NCC(N)C(N)=O)nc1C(=O)NC(C(=O)NC(C)C(O)C(C)C(=O)NC(C(=O)NCCc1nc(-c2nc(C(=O)NCCC[N+](C)(C)CCCN(Cc3ccccc3)Cc3ccccc3)cs2)cs1)C(C)O)C(OC1OC(CO)C(O)C(O)C1OC1OC(CO)C(O)C(OC(N)=O)C1O)c1cnc[nH]1 (stereo not drawn)", "ICR strain mice", 0.00),
    ("COc1ccc(CNCCCN(C)CCCNC(=O)c2csc(-c3csc(CCNC(=O)C(NC(=O)C(C)C(O)C(C)NC(=O)C(NC(=O)c4nc(C(CC(N)=O)NCC(N)C(N)=O)nc(N)c4C)C(OC4OC(CO)C(O)C(O)C4OC4OC(CO)C(O)C(OC(N)=O)C4O)c4cnc[nH]4)C(C)O)n3)n2)c(OC)c1 (stereo not drawn)", "ICR strain mice", 0.13),
    ("Cc1c(N)nc(C(CC(N)=O)NCC(N)C(N)=O)nc1C(=O)NC(C(=O)NC(C)C(O)C(C)C(=O)NC(C(=O)NCCc1nc(-c2nc(C(=O)NCCCN(C)CCCN(Cc3cc(OCc4ccccc4)c(OCc4ccccc4)c(OCc4ccccc4)c3)Cc3cc(OCc4ccccc4)c(OCc4ccccc4)c(OCc4ccccc4)c3)cs2)cs1)C(C)O)C(OC1OC(CO)C(O)C(O)C1OC1OC(CO)C(O)C(OC(N)=O)C1O)c1cnc[nH]1 (stereo not drawn)", "ICR strain mice", 0.00),
    ("Cc1c(N)nc(C(CC(N)=O)NCC(N)C(N)=O)nc1C(=O)NC(C(=O)NC(C)C(O)C(C)C(=O)NC(C(=O)NCCc1nc(-c2nc(C(=O)NCCCN3CCN(CCCNCC4CCCCCCC4)CC3)cs2)cs1)C(C)O)C(OC1OC(CO)C(O)C(O)C1OC1OC(CO)C(O)C(OC(N)=O)C1O)c1cnc[nH]1 (stereo not drawn)", "ICR strain mice", 0.00),
]

Item under review: COc1ccc(COc2ccc(CN(CCCN(C)CCCNC(=O)c3csc(-c4csc(CCNC(=O)C(NC(=O)C(C)C(O)C(C)NC(=O)C(NC(=O)c5nc(C(CC(N)=O)NCC(N)C(N)=O)nc(N)c5C)C(OC5OC(CO)C(O)C(O)C5OC5OC(CO)C(O)C(OC(N)=O)C5O)c5cnc[nH]5)C(C)O)n4)n3)Cc3ccc(OCc4ccc(OC)cc4)c(OCc4ccc(OC)cc4)c3)cc2OCc2ccc(OC)cc2)cc1 (stereo not drawn) . Reported Grade of pulmonary fibrosis, Ratio?
0.00
